Provenance of the data: the supplement of paper PMC12764529

Test: folding stability dG unfold from chymotrypsin proteolysis; higher = more stable
quantityKind: folding stability dG unfold (kcal/mol)
Numbers only, in kcal/mol.

Recorded folding stability dG unfold, per entry:
{"sequenceCode": "SAGGSAGGSELRVLDARPTPDGLVVNLVAPDRLLVTRVDTGADGSQSVSSVVLDAPESTEFDLSAGGSAGGS [r12_981_TrMRF]", "folding stability dG unfold (kcal/mol)": -0.918}
{"sequenceCode": "SAGGSAGGSNELLKKLGLKPDQTILVLARPGEIEKLRKEKPIKRIEVTPLPDDLYLYRIEVEGSAGGSAGGS [r12_750_TrMRF]", "folding stability dG unfold (kcal/mol)": 0.095}
{"sequenceCode": "SAGGSAGGSAKPNWVIIEMTIQIPEGDPEEIKEIMEPFGWEITGVDNNYIKVSILMPPGAKISAGGSAGGSA [r18_168_TrROS]", "folding stability dG unfold (kcal/mol)": 1.14}
{"sequenceCode": "GSSMTVEVSESVVPGTGKKILHVTVTFGGSDPEVARAQALAYVEKETGLPVVSVTVTRAPDSWTVNMTVVGS [r1_337_JUSTAS]", "folding stability dG unfold (kcal/mol)": 2.63}
{"sequenceCode": "SAGGSAGGSAGGNPGGKRQWVMMEFPIPPGKKIELPPNFNVSIFRDNDRLWLMITVDAVKSAGGSAGGSAGG [r7_584_TrROS]", "folding stability dG unfold (kcal/mol)": 1.88}

# per-item lookup of folding stability dG unfold; items listed below
1. SAGATTTTTTTNPADDTTVTTTTTTTGNTSTVTSTSTSGSTSTLTTTTVTFTSPTTTTTTTTTTPVPSSAGG [r19_292_JUSTAS]
2. MPAISIEEIIKLAKEAGKPAPPTVIVFNYKFGNTTRTLPVPLSEPVSLAEVEAAIKAADPNVTEITLTFVPS [r1_135_JUSTAS]
3. SAGGSAGGSMTITYDPVSNTYTVNLSLEGGTKTYTVPSLEALKATLKAEGLPWGPPPITTVSASAGGSAGGS [r12_834_JUSTAS]
4. SAGSMLFDPNGVLREVSVTPDPSTGTTVTTTLVQWPVDDGNGNSVLERITTTTSPSGTVTTSTEVRPAPSAG [r5_303_JUSTAS]
5. SAGGSAGGSAKLVKITFSNGEELVLPADKFSIEAIKSLPVPAKVEVFDVPKSDTNLEDLLKSAGGSAGGSAG [r3_69_TrMRF]
6. SAGGSAGGSAGGNDPNGQEKEIPIDPGQRADEIAEEFKDEFNPDHVEIEASEEGYAEVRVSAGGSAGGSAGG [r7_273_TrROS]
7. SAGPWRIKEVDPDSYTIEIRFGDRPIEIKIPPGKEPSIMIEMDPDGHFQLTIRVPDRTRTFTIPFDDIRSAG [r5_500_TrROS]

Result ::
[-0.45, 1.36, 5.05, 0.0881, 2.03, 0.887, 0.591]

Hi there! I need folding stability dG unfold for each item below, if you can.
1. SAGGSAGGSKMLLVKVYVPEFDTVVVFEAPRDITIEEIEERLREAGFSVARIEVVEFDLPEGGSAGGSAGGS [r12_955_TrMRF]
2. SGMTPVSVSRKFTSTFPNGTPVSDPGGLVVLVPEPPPPPYVHLSPEEVEAARAAAAAAGSPLTEADIRASSA [r9_487_JUSTAS]

Result ::
3.77
0.164
